Data credit: ChEMBL document CHEMBL4011649

# Lookup of reported pEC50 keyed by entry
target: 5-hydroxytryptamine receptor 2B (Homo sapiens); assay: Agonist activity at human 5-HT2B receptor expressed in Flp-IN HEK293 cells assessed as induction of calcium flux measured every second for 5 mins by Fluo-4 dye based FLIPR assay
Sequence (P41595 whole entry): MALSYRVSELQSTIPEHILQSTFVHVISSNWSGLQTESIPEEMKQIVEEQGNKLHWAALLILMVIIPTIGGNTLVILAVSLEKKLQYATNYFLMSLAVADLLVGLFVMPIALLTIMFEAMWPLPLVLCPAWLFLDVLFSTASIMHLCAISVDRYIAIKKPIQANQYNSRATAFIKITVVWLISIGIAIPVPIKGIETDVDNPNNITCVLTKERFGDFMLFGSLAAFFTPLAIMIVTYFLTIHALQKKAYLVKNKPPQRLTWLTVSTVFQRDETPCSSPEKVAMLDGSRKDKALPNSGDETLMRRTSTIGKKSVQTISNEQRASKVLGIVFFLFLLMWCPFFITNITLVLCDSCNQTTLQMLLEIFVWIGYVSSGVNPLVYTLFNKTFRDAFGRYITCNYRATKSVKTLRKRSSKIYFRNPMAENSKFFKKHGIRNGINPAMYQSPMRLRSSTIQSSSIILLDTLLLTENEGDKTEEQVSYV
FYI, pEC50 means -log10 of a concentration in mol per litre.

As a guide, the following entries are already answered.
COc1ccc(F)cc1C1CC1CNCc1cccc2ccsc12 (racemic): 6.09
COc1ccc(F)cc1C1CC1CNCc1cccc2cccnc12 (racemic): 7.06
COc1ccc(F)cc1C1CC1CNCc1cccnc1OC (racemic): 6.56

QUERY: Supply measured pEC50 of "CNC[C@H]1C[C@@H]1c1cc(F)ccc1OC" in your reply.
RESULT: 7.05

QUERY: Supply measured pEC50 of COc1ccc(F)cc1C1CC1CNCc1ccccc1C#N (racemic) in your reply.
RESULT: 6.62

====

target: 5-HT2B receptor (Homo sapiens); assay: Agonist activity at human 5-HT2B receptor expressed in Flp-IN HEK293 cells assessed as induction of calcium flux measured every second for 5 mins by Fluo-4 dye based FLIPR assay relative to serotonin; assay type: cell-based; details: Flp-IN HEK293 cells expressing human 5-HT2B receptor
# Lookup of reported Emax at 5 min keyed by entry
Answer in %, number only, no unit symbol.

As a guide, the following entries are already answered.
COc1ccc(F)cc1C1CC1CNCc1ccccc1C#N (racemic): 82
COc1ccc(F)cc1C1CC1CNCc1ccccc1OCCF (racemic): 11
COc1ccc(F)cc1C1CC1CNCc1ccccc1C(N)=O (racemic): 82
COc1ccccc1CNC[C@@H]1C[C@H]1c1cc(F)ccc1OC: 72
COc1ccc(F)cc1C1CC1CNCc1cccc2ccsc12 (racemic): 79

QUERY: Supply measured Emax at 5 min of COc1ccc(F)cc1C1CC1CNCc1cccnc1OC (racemic) in your reply.
RESULT: 32

====

Target: 5-hydroxytryptamine receptor 2C (Homo sapiens)
Sequence (P28335 whole entry): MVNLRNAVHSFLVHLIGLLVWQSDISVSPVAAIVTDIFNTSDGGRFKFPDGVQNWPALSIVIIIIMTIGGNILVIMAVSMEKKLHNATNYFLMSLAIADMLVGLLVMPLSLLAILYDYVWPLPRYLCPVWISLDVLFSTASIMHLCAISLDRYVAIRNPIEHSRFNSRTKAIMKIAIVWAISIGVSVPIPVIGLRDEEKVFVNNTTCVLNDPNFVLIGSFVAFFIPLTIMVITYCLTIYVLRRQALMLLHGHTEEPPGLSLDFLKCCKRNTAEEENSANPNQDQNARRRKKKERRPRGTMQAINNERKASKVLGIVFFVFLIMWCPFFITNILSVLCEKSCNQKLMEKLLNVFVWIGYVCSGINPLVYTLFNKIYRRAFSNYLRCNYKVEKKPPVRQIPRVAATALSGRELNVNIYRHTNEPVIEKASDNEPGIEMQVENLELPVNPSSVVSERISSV
Assay: Agonist activity at tTA containing TEV cleavage site-fused 5-HT2C-INI receptor isoform (unknown origin) expressed in TEV-fused beta-arrestin2 expressing HEK cells assessed as induction of beta-arrestin2 recruitment after 20 hrs by Tango assay
Format: cell-based
OBSERVED PROPERTY: pEC50
FYI, pEC50 means -log10 of a concentration in mol per litre.

QUERY: Supply measured pEC50 of "C=CCOc1ccc(F)cc1[C@H]1C[C@@H]1CNCc1ccccc1OC" in your reply.
RESULT: 7.64

====

# Lookup of reported Emax keyed by entry
target: 5-hydroxytryptamine receptor 2C (Homo sapiens); test: Agonist activity at human 5-HT2C-INI receptor isoform expressed in Flp-IN HEK293 cells assessed as induction of Gq-mediated calcium flux measured every second for 5 mins by Fluo-4 dye based FLIPR assay relative to serotonin; type: functional, cell-based
Answer in %, number only, no unit symbol.

As a guide, the following entries are already answered.
COc1ccc(CNC[C@H]2C[C@@H]2c2cc(F)ccc2OC)cc1.Cl: 71
COc1ccccc1CN(C)CC1CC1c1cc(F)ccc1OC.Cl (racemic): 49
C=CCOc1ccc(F)cc1[C@H]1C[C@@H]1CNCc1ccccc1OC: 97
COc1ccc(F)cc1C1CC1CNCc1ccsc1OC.Cl (racemic): 65
COc1ccccc1CNC[C@H]1C[C@@H]1c1cc(F)ccc1OC.Cl: 92

QUERY: Supply measured Emax of "COc1ccc(F)cc1[C@H]1C[C@@H]1CNCc1cccs1.Cl" in your reply.
RESULT: 60

QUERY: Supply measured Emax of COc1cscc1CNCC1CC1c1cc(F)ccc1OC.Cl (racemic) in your reply.
RESULT: 65

QUERY: Supply measured Emax of COc1ccc(F)cc1C1CC1CNC1CC1 (racemic) in your reply.
RESULT: 70

QUERY: Supply measured Emax of COc1ccc(F)cc1C1CC1CNCc1cccc2ccsc12 (racemic) in your reply.
RESULT: 94

QUERY: Supply measured Emax of "COc1cccc(CNC[C@H]2C[C@@H]2c2cc(F)ccc2OC)c1.Cl" in your reply.
RESULT: 83

QUERY: Supply measured Emax of COc1ccc(F)cc1C1CC1CNCc1sccc1OC.Cl (racemic) in your reply.
RESULT: 66

QUERY: Supply measured Emax of "COc1ccccc1CNC[C@@H]1C[C@H]1c1cc(F)ccc1OC" in your reply.
RESULT: 104

QUERY: Supply measured Emax of COc1ccc(F)cc1C1CC1CNCc1cccc2cccnc12 (racemic) in your reply.
RESULT: 84

QUERY: Supply measured Emax of COc1ccc(F)cc1C1CC1CNCC1CCCCC1.Cl (racemic) in your reply.
RESULT: 15

QUERY: Supply measured Emax of "COc1ccc(F)cc1[C@@H]1C[C@H]1CNCc1ccccc1Cl.Cl" in your reply.
RESULT: 72

====

target: 5-HT2B receptor (Homo sapiens, UniProt P41595); test: Agonist activity at human 5-HT2B receptor expressed in Flp-IN HEK293 cells assessed as induction of calcium flux measured every second for 5 mins by Fluo-4 dye based FLIPR assay relative to serotonin; assay type: cell-based; conditions: Flp-IN HEK293 cells expressing human 5-HT2B receptor
Sequence (P41595 whole entry): as the sequence (P41595 whole entry) above
Consider the cut-off 30%. If the recorded Emax at 5 min is strictly smaller, the label is Y; if not, the label is N.

Recorded results for 3 molecules are shown here.
C=CCOc1ccc(F)cc1[C@H]1C[C@@H]1CNCc1ccccc1OC: Y
COc1ccccc1CNC[C@H]1C[C@@H]1c1cc(F)ccc1OCCF: Y
COc1ccc(F)cc1C1CC1CNC1CC1 (racemic): Y

QUERY: Would you kindly verify if Emax at 5 min of "CNC[C@H]1C[C@@H]1c1cc(F)ccc1OC" is strictly less than 30%?
RESULT: N

QUERY: Would you kindly verify if Emax at 5 min of COc1ccc(F)cc1C1CC1CNCc1cccc2cccnc12 (racemic) is strictly less than 30%?
RESULT: N

====

target: CYP2D6 (Homo sapiens, UniProt P10635); experiment: in vitro; details: liver microsomes, probe dextromethorphan
Sequence (P10635 whole entry): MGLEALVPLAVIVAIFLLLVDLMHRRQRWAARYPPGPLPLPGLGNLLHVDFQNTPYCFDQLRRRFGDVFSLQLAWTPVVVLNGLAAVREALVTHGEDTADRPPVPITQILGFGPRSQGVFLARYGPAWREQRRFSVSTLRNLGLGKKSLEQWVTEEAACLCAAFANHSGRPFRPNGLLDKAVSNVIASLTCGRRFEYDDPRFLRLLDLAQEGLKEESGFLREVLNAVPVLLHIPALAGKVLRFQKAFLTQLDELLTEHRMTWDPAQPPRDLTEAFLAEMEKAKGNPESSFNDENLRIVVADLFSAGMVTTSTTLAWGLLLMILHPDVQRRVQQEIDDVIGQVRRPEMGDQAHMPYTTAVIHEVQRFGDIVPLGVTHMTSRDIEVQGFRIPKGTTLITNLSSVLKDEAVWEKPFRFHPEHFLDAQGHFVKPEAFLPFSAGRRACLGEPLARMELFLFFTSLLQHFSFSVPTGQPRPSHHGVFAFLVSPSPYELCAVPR
OBSERVED PROPERTY: inhibition at 10 µM (%)
Answer in %, number only, no unit symbol.

QUERY: Supply measured inhibition at 10 µM of "COc1ccccc1CNC[C@H]1C[C@@H]1c1cc(F)ccc1OC.Cl" in your reply.
RESULT: 68.9

====

molecular target: CYP2C9 (Homo sapiens); assay: in vitro; details: liver microsomes, probe tolbutamide
Sequence (P11712 whole entry): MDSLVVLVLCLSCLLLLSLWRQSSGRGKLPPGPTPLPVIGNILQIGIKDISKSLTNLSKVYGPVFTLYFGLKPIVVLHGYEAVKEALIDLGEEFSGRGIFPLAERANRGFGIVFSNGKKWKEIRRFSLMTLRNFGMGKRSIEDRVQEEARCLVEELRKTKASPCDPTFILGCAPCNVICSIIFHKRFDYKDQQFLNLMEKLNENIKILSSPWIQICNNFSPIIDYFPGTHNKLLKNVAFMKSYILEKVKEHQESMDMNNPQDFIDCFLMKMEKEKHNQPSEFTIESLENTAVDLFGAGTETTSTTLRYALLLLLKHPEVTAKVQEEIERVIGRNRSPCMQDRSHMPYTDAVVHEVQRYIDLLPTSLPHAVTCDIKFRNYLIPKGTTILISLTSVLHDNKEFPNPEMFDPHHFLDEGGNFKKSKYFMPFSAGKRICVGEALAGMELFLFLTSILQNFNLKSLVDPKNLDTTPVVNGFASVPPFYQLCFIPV
OBSERVED PROPERTY: inhibition at 10 µM
The number alone won't do; follow it with the unit.

QUERY: Supply measured inhibition at 10 µM of "COc1ccccc1CNC[C@H]1C[C@@H]1c1cc(F)ccc1OC.Cl" in your reply.
RESULT: 9.3%

====

# Lookup of reported EC50 keyed by entry
target: 5-hydroxytryptamine receptor 2C (Homo sapiens); assay: Agonist activity at human 5-HT2C-INI receptor isoform expressed in Flp-IN HEK293 cells assessed as induction of Gq-mediated calcium flux measured every second for 5 mins by Fluo-4 dye based FLIPR assay; type: functional, cell-based; details: read-out: EC50
Answer in nM, number only, no unit symbol.

As a guide, the following entries are already answered.
COc1ccc(F)cc1[C@H]1C[C@@H]1CNCc1cccs1.Cl: 120
COc1ccccc1CN(C)CC1CC1c1cc(F)ccc1OC.Cl (racemic): 670
COc1ccc(F)cc1C1CC1CNCc1ccccc1C(N)=O (racemic): 409
COc1ccc(F)cc1[C@H]1C[C@@H]1CNCc1ccccc1Cl.Cl: 529
COc1ccc(F)cc1C1CC1CNCc1sccc1OC.Cl (racemic): 121

QUERY: State recorded EC50 with 5-hydroxytryptamine receptor 2C (Homo sapiens), entry COc1cscc1CNCC1CC1c1cc(F)ccc1OC.Cl (racemic) , no comment.
RESULT: 228

QUERY: State recorded EC50 with 5-hydroxytryptamine receptor 2C (Homo sapiens), entry "COc1ccc(CNC[C@H]2C[C@@H]2c2cc(F)ccc2OC)cc1.Cl" , no comment.
RESULT: 1200

====

target: Voltage-gated inwardly rectifying potassium channel KCNH2 (Homo sapiens, UniProt Q12809); experiment: Inhibition of human ERG expressed in CHO cells by automated patch-clamp assay
Sequence (Q12809 whole entry): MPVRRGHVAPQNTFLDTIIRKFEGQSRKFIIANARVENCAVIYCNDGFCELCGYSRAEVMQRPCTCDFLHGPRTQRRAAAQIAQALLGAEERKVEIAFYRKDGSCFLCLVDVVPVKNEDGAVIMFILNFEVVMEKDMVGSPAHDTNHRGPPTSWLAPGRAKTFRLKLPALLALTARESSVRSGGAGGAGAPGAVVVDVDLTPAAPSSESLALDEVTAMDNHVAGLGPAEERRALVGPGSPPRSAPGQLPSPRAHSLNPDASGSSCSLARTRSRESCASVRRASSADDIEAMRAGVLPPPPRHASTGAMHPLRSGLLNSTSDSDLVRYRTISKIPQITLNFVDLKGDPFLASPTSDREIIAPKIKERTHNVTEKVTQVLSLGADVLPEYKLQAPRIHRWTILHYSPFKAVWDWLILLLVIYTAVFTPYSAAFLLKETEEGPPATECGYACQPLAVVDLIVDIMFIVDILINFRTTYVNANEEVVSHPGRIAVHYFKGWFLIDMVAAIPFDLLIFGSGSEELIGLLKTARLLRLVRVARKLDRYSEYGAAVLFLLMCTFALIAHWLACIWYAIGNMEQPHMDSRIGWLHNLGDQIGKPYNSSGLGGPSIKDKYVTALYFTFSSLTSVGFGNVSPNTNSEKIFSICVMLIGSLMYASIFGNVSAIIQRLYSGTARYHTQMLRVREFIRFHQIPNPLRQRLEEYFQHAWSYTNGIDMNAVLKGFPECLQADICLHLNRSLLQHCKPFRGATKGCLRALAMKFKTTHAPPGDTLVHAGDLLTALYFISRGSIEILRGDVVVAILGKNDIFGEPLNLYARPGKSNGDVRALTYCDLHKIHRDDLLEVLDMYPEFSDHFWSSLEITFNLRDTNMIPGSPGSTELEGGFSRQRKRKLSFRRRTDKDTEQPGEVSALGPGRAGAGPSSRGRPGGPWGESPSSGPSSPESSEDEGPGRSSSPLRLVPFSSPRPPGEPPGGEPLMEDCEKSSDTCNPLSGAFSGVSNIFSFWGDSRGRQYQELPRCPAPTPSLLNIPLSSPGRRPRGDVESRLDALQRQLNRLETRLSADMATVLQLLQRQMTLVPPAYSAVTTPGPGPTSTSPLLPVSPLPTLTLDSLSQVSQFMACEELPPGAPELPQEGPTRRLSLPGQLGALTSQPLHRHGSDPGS
OBSERVED PROPERTY: IC50
The number alone won't do; follow it with the unit.

QUERY: Supply measured IC50 of "COc1ccccc1CNC[C@H]1C[C@@H]1c1cc(F)ccc1OC.Cl" in your reply.
RESULT: 1400 nM
